# tested_on: LL-diaminopimelate aminotransferase, chloroplastic (Arabidopsis thaliana, UniProt Q93ZN9)
# Sequence (Q93ZN9 whole entry): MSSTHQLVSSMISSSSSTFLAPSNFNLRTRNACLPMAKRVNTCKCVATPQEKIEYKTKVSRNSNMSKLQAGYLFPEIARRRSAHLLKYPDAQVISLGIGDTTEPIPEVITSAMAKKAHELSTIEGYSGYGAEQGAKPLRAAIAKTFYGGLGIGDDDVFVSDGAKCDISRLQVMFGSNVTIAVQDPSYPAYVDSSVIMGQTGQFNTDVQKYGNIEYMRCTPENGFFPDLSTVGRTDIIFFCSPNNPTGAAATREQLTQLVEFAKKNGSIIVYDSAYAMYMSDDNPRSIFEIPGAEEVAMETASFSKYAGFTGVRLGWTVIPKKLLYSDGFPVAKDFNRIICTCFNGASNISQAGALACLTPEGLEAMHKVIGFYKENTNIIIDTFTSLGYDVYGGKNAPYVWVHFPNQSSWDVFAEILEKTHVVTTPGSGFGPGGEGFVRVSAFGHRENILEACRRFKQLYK
# assay_info: Inhibition of Arabidopsis thaliana LL-DAP-AT expressed in Escherichia coli by aminobenzaldehyde-based assay
# test_parameters: read-out: IC50
measure_name: pIC50
Keep in mind that pIC50 stands for -log10 of concentration in molar terms.

Here's what some known entries look like.
[[record]]
chemical_smiles = "Cc1ccc(OCCn2c(C=C3C(=O)NC(=O)NC3=O)cc3ccccc32)cc1C"
tested_on = "LL-diaminopimelate aminotransferase, chloroplastic (Arabidopsis thaliana, UniProt Q93ZN9)"
observed_value = 4.00

[[record]]
chemical_smiles = "CC(=O)NN1C(=O)/C(=C/c2ccc(Br)o2)SC1=S"
tested_on = "LL-diaminopimelate aminotransferase, chloroplastic (Arabidopsis thaliana, UniProt Q93ZN9)"
observed_value = 4.39


Q: Assign pIC50 to the following record: C=CCN1C(=O)/C(=C2/C(=O)N(S(=O)(=O)c3ccc(OC)cc3)c3ccccc32)SC1=S
Result: 3.71

Q: Assign pIC50 to the following record: Cc1ccc(C2=NC(=O)/C(=C/c3cc4c(cc3Br)OCO4)S2)cc1
Result: 3.89

Q: Assign pIC50 to the following record: CC(=O)/N=C1\NC(=O)/C(=C/c2ccc(-c3ccc([N+](=O)[O-])cc3)o2)S1
Result: 4.11

Q: Assign pIC50 to the following record: Cc1cc(C=C2C(=O)NC(=S)NC2=O)c(C)n1C
Result: 4.60

Q: Assign pIC50 to the following record: COc1ccc(C=C2C(=O)NC(=S)NC2=O)cc1OCc1ccccc1Cl
Result: 3.92

Q: Assign pIC50 to the following record: O=C(N/N=C/c1ccc(F)cc1)c1cc(-c2ccc3ccccc3c2)n[nH]1
Result: 3.79

Data origin: ChEMBL document CHEMBL1157640
